Consider the following sequences; for each one, report its percentage of EdU-negative.
- Test system: hTERT-HMEC
- assay.text: percentage of EdU-negative (G0-arrested) nuclei per well, 72 h; higher = more G0 arrest;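 further: secreted proteins added to cultured cells, EdU pulse at the end, nuclei found by Hoechst imaging, EdU status from nuclear versus surrounding ring intensity ratio, PBS as neutral control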
- measurement.conditions: protein concentration 0.225 µM; reference: sequence is the full UniProt precursor, the tested protein was the secreted form or ectodomain
Form entry: value (%) — number only.

Ask: # return percentage of EdU-negative for MLLLVTSLLLCELPHPAFLLIPEKSDLRTVAPASSLNVRFDSRTMNLSWDCQENTTFSKCFLTDKKNRVVEPRLSNNECSCTFREICLHEGVTFEVHVNTSQRGFQQKLLYPNSGREGTAAQNFSCFIYNADLMNCTWARGPTAPRDVQYFLYIRNSKRRREIRCPYYIQDSGTHVGCHLDNLSGLTSRNYFLVNGTSREIGIQFFDSLLDTKKIERFNPPSNVTVRCNTTHCLVRWKQPRTYQKLSYLDFQYQLDVHRKNTQPGTENLLINVSGDLENRYNFPSSEPRAKHSVKIRAADVRILNWSSWSEAIEFGSDDGNLGSVYIYVLLIVGTLVCGIVLGFLFKRFLRIQRLFPPVPQIKDKLNDNHEVEDEIIWEEFTPEEGKGYREEVLTVKEIT , test system: hTERT-HMEC
Result: 4.81

Ask: # return percentage of EdU-negative for MFHQIWAALLYFYGIILNSIYQCPEHSQLTTLGVDGKEFPEVHLGQWYFIAGAAPTKEELATFDPVDNIVFNMAAGSAPMQLHLRATIRMKDGLCVPRKWIYHLTEGSTDLRTEGRPDMKTELFSSSCPGGIMLNETGQGYQRFLLYNRSPHPPEKCVEEFKSLTSCLDSKAFLLTPRNQEACELSNN , test system: hTERT-HMEC
Result: 9.42

Ask: # return percentage of EdU-negative for MAQHHLWILLLCLQTWPEAAGKDSEIFTVNGILGESVTFPVNIQEPRQVKIIAWTSKTSVAYVTPGDSETAPVVTVTHRNYYERIHALGPNYNLVISDLRMEDAGDYKADINTQADPYTTTKRYNLQIYRRLGKPKITQSLMASVNSTCNVTLTCSVEKEEKNVTYNWSPLGEEGNVLQIFQTPEDQELTYTCTAQNPVSNNSDSISARQLCADIAMGFRTHHTGLLSVLAMFFLLVLILSSVFLFRLFKRRQGRIFPEGSCLNTFTKNPYAASKKTIYTYIMASRNTQPAESRIYDEILQSKVLPSKEEPVNTVYSEVQFADKMGKASTQDSKPPGTSSYEIVI [Q9UIB8] , test system: hTERT-HMEC
Result: 5.92

----------
Consider the following sequences; for each one, report its percentage of EdU-negative.
- Test system: MCF7
- assay.text: percentage of EdU-negative (G0-arrested) nuclei per well, 72 h; higher = more G0 arrest
- measurement.conditions: protein concentration 0.3125 µM; reference: sequence is the full UniProt precursor, the tested protein was the secreted form or ectodomain
Form entry: value (%) — number only.

Ask: # return percentage of EdU-negative for MLFSALLLEVIWILAADGGQHWTYEGPHGQDHWPASYPECGNNAQSPIDIQTDSVTFDPDLPALQPHGYDQPGTEPLDLHNNGHTVQLSLPSTLYLGGLPRKYVAAQLHLHWGQKGSPGGSEHQINSEATFAELHIVHYDSDSYDSLSEAAERPQGLAVLGILIEVGETKNIAYEHILSHLHEVRHKDQKTSVPPFNLRELLPKQLGQYFRYNGSLTTPPCYQSVLWTVFYRRSQISMEQLEKLQGTLFSTEEEPSKLLVQNYRALQPLNQRMVFASFIQAGSSYTTGEMLSLGVGILVGCLCLLLAVYFIARKIRKKRLENRKSVVFTSAQATTEA [Q9ULX7] , test system: MCF7
Result: 24.3

Ask: # return percentage of EdU-negative for MTDRQTDTAPSPSYHLLPGRRRTVDAAASRGQGPEPAPGGGVEGVGARGVALKLFVQLLGCSRFGGAVVRAGEAEPSGAARSASSGREEPQPEEGEEEEEKEEERGPQWRLGARKPGSWTGEAAVCADSAPAARAPQALARASGRGGRVARRGAEESGPPHSPSRRGSASRAGPGRASETMNFLLSWVHWSLALLLYLHHAKWSQAAPMAEGGGQNHHEVVKFMDVYQRSYCHPIETLVDIFQEYPDEIEYIFKPSCVPLMRCGGCCNDEGLECVPTEESNITMQIMRIKPHQGQHIGEMSFLQHNKCECRPKKDRARQEKKSVRGKGKGQKRKRKKSRYKSWSVPCGPCSERRKHLFVQDPQTCKCSCKNTDSRCKARQLELNERTCRCDKPRR , test system: MCF7
Result: 25.1

Ask: # return percentage of EdU-negative for MRPTLLWSLLLLLGVFAAAAAAPPDPLSQLPAPQHPKIRLYNAEQVLSWEPVALSNSTRPVVYQVQFKYTDSKWFTADIMSIGVNCTQITATECDFTAASPSAGFPMDFNVTLRLRAELGALHSAWVTMPWFQHYRNVTVGPPENIEVTPGEGSLIIRFSSPFDIADTSTAFFCYYVHYWEKGGIQQVKGPFRSNSISLDNLKPSRVYCLQVQAQLLWNKSNIFRVGHLSNISCYETMADASTELQQVILISVGTFSLLSVLAGACFFLVLKYRGLIKYWFHTPPSIPLQIEEYLKDPTQPILEALDKDSSPKDDVWDSVSIISFPEKEQEDVLQTL , test system: MCF7
Result: 24.6

Ask: # return percentage of EdU-negative for MEKLLCFLVLTSLSHAFGQTDMSRKAFVFPKESDTSYVSLKAPLTKPLKAFTVCLHFYTELSSTRGYSIFSYATKRQDNEILIFWSKDIGYSFTVGGSEILFEVPEVTVAPVHICTSWESASGIVEFWVDGKPRVRKSLKKGYTVGAEASIILGQEQDSFGGNFEGSQSLVGDIGNVNMWDFVLSPDEINTIYLGGPFSPNVLNWRALKYEVQGEVFTKPQLWP , test system: MCF7
Result: 25.3

Ask: # return percentage of EdU-negative for MFIKVMFGAGCSVLVNTSCRLVNLTAHLRQKAGLPPDATIALLAEDGNLVSLEEDLKEGASRAQTMGNSLLKERAIYVLVRIIKGEDMASTRYESLLENLDDHYPELAEELRRLSGLSSVGHNWRKRMGTRRGRHEQSPTSRPRKGPD [Q8WYQ4] , test system: MCF7
Result: 25.8

Ask: # return percentage of EdU-negative for MVLLWLTLLLIALPCLLQTKEDPNPPITNLRMKAKAQQLTWDLNRNVTDIECVKDADYSMPAVNNSYCQFGAISLCEVTNYTVRVANPPFSTWILFPENSGKPWAGAENLTCWIHDVDFLSCSWAVGPGAPADVQYDLYLNVANRRQQYECLHYKTDAQGTRIGCRFDDISRLSSGSQSSHILVRGRSAAFGIPCTDKFVVFSQIEILTPPNMTAKCNKTHSFMHWKMRSHFNRKFRYELQIQKRMQPVITEQVRDRTSFQLLNPGTYTVQIRARERVYEFLSAWSTPQRFECDQEEGANTRAWRTSLLIALGTLLALVCVFVICRRYLVMQRLFPRIPHMKDPIGDSFQNDKLVVWEAGKAGLEECLVTEVQVVQKT , test system: MCF7
Result: 30.4

Ask: # return percentage of EdU-negative for MRPGAPGPLWPLPWGALAWAVGFVSSMGSGNPAPGGVCWLQQGQEATCSLVLQTDVTRAECCASGNIDTAWSNLTHPGNKINLLGFLGLVHCLPCKDSCDGVECGPGKACRMLGGRPRCECAPDCSGLPARLQVCGSDGATYRDECELRAARCRGHPDLSVMYRGRCRKSCEHVVCPRPQSCVVDQTGSAHCVVCRAAPCPVPSSPGQELCGNNNVTYISSCHMRQATCFLGRSIGVRHAGSCAGTPEEPPGGESAEEEENFV , test system: MCF7
Result: 24.7

Ask: # return percentage of EdU-negative for MALEKSLVRLLLLVLILLVLGWVQPSLGKESRAKKFQRQHMDSDSSPSSSSTYCNQMMRRRNMTQGRCKPVNTFVHEPLVDVQNVCFQEKVTCKNGQGNCYKSNSSMHITDCRLTNGSRYPNCAYRTSPKERHIIVACEGSPYVPVHFDASVEDST , test system: MCF7
Result: 24.6

Ask: # return percentage of EdU-negative for MALGVPISVYLLFNAMTALTEEAAVTVTPPITAQQGNWTVNKTEADNIEGPIALKFSHLCLEDHNSYCINGACAFHHELEKAICRCFTGYTGERCEHLTLTSYAVDSYEKYIAIGIGVGLLLSGFLVIFYCYIRKRCLKLKSPYNVCSGERRPL , test system: MCF7
Result: 27

Ask: # return percentage of EdU-negative for MRFLAATFLLLALSTAAQAEPVQFKDCGSVDGVIKEVNVSPCPTQPCQLSKGQSYSVNVTFTSNIQSKSSKAVVHGILMGVPVPFPIPEPDGCKSGINCPIQKDKTYSYLNKLPVKSEYPSIKLVVEWQLQDDKNQSLFCWEIPVQIVSHL , test system: MCF7
Result: 27.1

Ask: # return percentage of EdU-negative for MWKRWLALALALVAVAWVRAEEELRSKSKICANVFCGAGRECAVTEKGEPTCLCIEQCKPHKRPVCGSNGKTYLNHCELHRDACLTGSKIQVDYDGHCKEKKSVSPSASPVVCYQSNRDELRRRIIQWLEAEIIPDGWFSKGSNYSEILDKYFKNFDNGDSRLDSSEFLKFVEQNETAINITTYPDQENNKLLRGLCVDALIELSDENADWKLSFQEFLKCLNPSFNPPEKKCALEDETYADGAETEVDCNRCVCACGNWVCTAMTCDGKNQKGAQTQTEEEMTRYVQELQKHQETAEKTKRVSTKEI , test system: MCF7
Result: 26.2
